tested_system: Metabotropic glutamate receptor 2 (Homo sapiens)
Sequence (Q14416 whole entry): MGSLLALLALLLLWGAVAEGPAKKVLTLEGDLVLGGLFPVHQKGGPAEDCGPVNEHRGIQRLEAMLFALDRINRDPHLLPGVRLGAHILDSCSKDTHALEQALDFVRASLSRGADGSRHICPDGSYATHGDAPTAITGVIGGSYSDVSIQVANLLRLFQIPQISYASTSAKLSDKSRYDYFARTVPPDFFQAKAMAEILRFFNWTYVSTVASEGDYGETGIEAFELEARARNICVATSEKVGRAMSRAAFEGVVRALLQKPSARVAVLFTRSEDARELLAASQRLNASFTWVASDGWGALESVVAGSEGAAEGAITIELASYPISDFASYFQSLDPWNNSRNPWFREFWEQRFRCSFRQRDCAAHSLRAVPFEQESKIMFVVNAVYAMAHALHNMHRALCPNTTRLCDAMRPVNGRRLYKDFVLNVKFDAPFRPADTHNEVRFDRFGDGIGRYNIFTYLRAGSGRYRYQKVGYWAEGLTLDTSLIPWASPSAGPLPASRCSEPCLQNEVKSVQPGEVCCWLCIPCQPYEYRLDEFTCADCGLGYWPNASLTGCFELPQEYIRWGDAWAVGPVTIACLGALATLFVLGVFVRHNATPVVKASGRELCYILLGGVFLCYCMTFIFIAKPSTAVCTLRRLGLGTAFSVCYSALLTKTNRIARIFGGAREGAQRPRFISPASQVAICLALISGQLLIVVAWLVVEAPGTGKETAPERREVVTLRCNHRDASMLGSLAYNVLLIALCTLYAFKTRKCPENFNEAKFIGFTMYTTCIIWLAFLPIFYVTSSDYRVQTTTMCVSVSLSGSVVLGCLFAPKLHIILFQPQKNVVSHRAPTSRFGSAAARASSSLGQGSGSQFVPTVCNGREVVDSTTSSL
measurement_protocol: [35S]-GTPγS Assay: The stimulation of [35S]-GTPγS binding is a common functional assay to monitor Gαi-coupled receptor in native and recombinant receptor membrane preparation. Membrane from cells stably expressing hmGlu2 CHO-K1 (50 μg) are incubated in a 96 well plate for 1 hour in the presence of GTPγS35 (0.05 nM), GDP (5 μM) and compounds. The reaction is stopped by rapid filtration over Unifilter GF/B plate (Packard, Bioscience, Meriden Conn.) using a 96-well cell harvester (Brandel Gaithersburg, Md.). The filter plates are counted using Topcount counter (Packard, Bioscience, Meriden Conn., USA). When compounds are evaluated as potentiators they are tested in the presence of glutamate (1 μM).
measurement_kind: EC50 (nM)

compound	EC50, nM
Cn1c(=O)n(CC(C)(C)C)c2ccc(C3=CC4CN(C(=O)CO)CC4C3)nc21 (configuration not stated)	2820
CN1c2nc(C3=CC4CN(C(=O)C(C)(C)O)CC4C3)ccc2N(CC2CC2(F)F)S1(=O)=O (configuration not stated)	88.6

P. Cn1c(=O)n(CC(C)(C)C)c2ccc(C3=CC4CCC3CN4C(=O)c3csnn3)nc21 (configuration not stated)
Q. CC1C(c2ccc3c(n2)N(C)S(=O)(=O)N3CC2CC2(F)F)C1C(C)(C)O (configuration not stated)
R. Cn1c(=O)n(CC(C)(C)C)c2ccc(C3=CC4CCC3CN4C(=O)Cn3cncn3)nc21 (configuration not stated)
S. Cn1c(=O)n(CC(C)(C)C)c2ccc(C3=CC4CCC3CN4C(=O)c3cccnc3)nc21 (configuration not stated)
With regard to EC50, arrange the entries in ascending order, please. # list labels per requested ordering
Q, P, R, S

P. Cn1c(=O)n(CC(C)(C)C)c2ccc(C3=CC4CN(C(=O)C5(O)CCC5)CC4C3)nc21 (configuration not stated)
Q. Cn1c(=O)n(CC2CC2(F)F)c2ccc(C3=CC4CCC3CN4C(=O)c3ccon3)nc21 (configuration not stated)
Which is greater in EC50, the first item P or the second item Q ? // output: label of the selected item
P

a. Cn1c(=O)n(CC(C)(C)C)c2ccc(C3=CC4CCC3CN4C(=O)C3CC3)nc21 (configuration not stated)
b. Cn1c(=O)n(CC(C)(C)C)c2ccc(C3=CC4CCC3CN4C(=O)c3ncco3)nc21 (configuration not stated)
For a and b , which recorded EC50 is lower? // output: label of the selected item
b
(b: 17.9 nM, a: 215 nM)

I. Cn1c(=O)n(CC(C)(C)C)c2ccc(C3=CC4CN(C(=O)c5ncco5)CC4C3)nc21 (configuration not stated)
II. Cn1c(=O)n(CC2CC2(F)F)c2ccc(C3=CC4CN(C(=O)c5ncco5)CC4C3)nc21 (configuration not stated)
Which is greater in EC50, the first item I or the second item II ? // output: label of the selected item
II
